Source of measurements: patent US20250011363A1

Molecular target: acetylcholine receptor
Test: SPR, AchR immobilized on chip, peptide at 10 uM
Each record here notes measured Binding affinity.

binder: KLFCKK [6mer-2-67]
output_unit: RU
Binding affinity: 124

binder: RGRQKK [6mer-2-14]
output_unit: RU
Binding affinity: 153

binder: RSQRKR [6mer-2-29]
output_unit: RU
Binding affinity: 142

binder: RRLQKK [6mer-2-36]
output_unit: RU
Binding affinity: 131
